Measured values drawn from BigSolDB 2.1 for this set.

- DETAILS: in 2-butanone, 308.15 K
PARAMETER: solubility (mole fraction)
Number only, please.

**Query** I'd like to know its solubility (mole fraction). The compound in question is CC(=O)N[C@H](C(=O)O)C(C)C
**Result** 0.0176

----------
- DETAILS: in isopropanol, 288.15 K
PARAMETER: solubility (mole fraction)
# answer = number (no unit)

**Query** Recorded solubility (mole fraction) for CC(=O)N[C@H](C(=O)O)C(C)C , please?
**Result** 0.048

----------
- DETAILS: in dimethyl carbonate, 288.15 K
PARAMETER: solubility (mole fraction)
Reply with the value as a number alone.

**Query** Find the recorded solubility (mole fraction) belonging to CC(=O)N[C@H](C(=O)O)C(C)C and report it.
**Result** 0.00139
